Give melting point for every item shown.
Answers are plain numbers, in °C.

Fill in melting point for each of the 4 compounds listed.
1. COc1cc([N+](=O)[O-])ccc1C(=O)Nc1cccc(C(=O)Nc2c(Cl)cc(C(F)(C(F)(F)F)C(F)(F)C(F)(F)F)cc2Br)c1OC (centres unmarked)
2. CCOc1cc(C(=O)Nc2cccc(C(=O)Nc3c(Cl)cc(C(F)(C(F)(F)F)C(F)(F)C(F)(F)F)cc3Br)c2OC)ccc1[N+](=O)[O-] (centres unmarked)
3. COc1c(NC(=O)c2c(Cl)cc(Br)cc2Cl)cccc1C(=O)Nc1c(Cl)cc(C(F)(C(F)(F)F)C(F)(F)C(F)(F)F)cc1Br (centres unmarked)
4. COc1c(NC(=O)c2cc(C)c([N+](=O)[O-])c(C)c2)cccc1C(=O)Nc1c(Cl)cc(C(F)(C(F)(F)F)C(F)(F)C(F)(F)F)cc1Br (centres unmarked)

Outgoing:
[190, 238, 250, 218]
